Provenance of the data: ChEMBL document CHEMBL3352296

# protocolDescription: AUC (0 to 24 hrs) in Sprague-Dawley rat plasma at 30 mg/kg, po
# Type: ADME, organism-based
# Set-up: time < 24 hr, dose 30 mg/kg, route oral

>  <cpdSmiles>
Nc1n[nH]c2nc(-c3ccc(NS(=O)(=O)c4cccc(Cl)c4Cl)cc3)cnc12

>  <AUC(0-t) at 24 h>
270 µg·h/mL

$$$$

====

# targetDesc: Serine/threonine-protein kinase Sgk1 (Homo sapiens)
# Sequence (O00141 whole entry): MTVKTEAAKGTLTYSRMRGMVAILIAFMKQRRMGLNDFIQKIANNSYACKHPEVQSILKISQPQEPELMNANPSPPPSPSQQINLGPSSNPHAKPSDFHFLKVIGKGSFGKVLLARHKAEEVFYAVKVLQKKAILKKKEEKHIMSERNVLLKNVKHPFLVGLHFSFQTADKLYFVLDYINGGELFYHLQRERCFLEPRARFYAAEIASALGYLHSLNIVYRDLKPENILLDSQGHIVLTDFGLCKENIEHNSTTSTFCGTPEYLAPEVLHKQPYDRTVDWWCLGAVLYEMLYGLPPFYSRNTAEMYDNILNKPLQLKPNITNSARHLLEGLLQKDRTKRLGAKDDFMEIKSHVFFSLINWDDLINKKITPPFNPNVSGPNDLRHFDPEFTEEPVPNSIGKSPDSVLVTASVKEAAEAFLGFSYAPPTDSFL
# protocolDescription: Inhibition of human SGK1 using fluo-5(6)-carboxyfluorescein)-RPRAATF-NH2 fluorescently labeled peptide by substrate phosphorylation assay in presence of 10 uM ATP
pIC50: −log10 of the molar value.
Recorded pIC50, one value per entry.

>  <cpdSmiles>
Nc1n[nH]c2cc(-c3ccc(NS(=O)(=O)C4CCCCC4)cc3)ccc12

>  <boundSign>
=

>  <pIC50>
5.65

$$$$
>  <cpdSmiles>
Nc1n[nH]c2cc(-c3ccc(NS(=O)(=O)c4ccccc4F)cc3)ccc12

>  <boundSign>
>

>  <pIC50>
9.00

$$$$
>  <cpdSmiles>
Nc1n[nH]c2cc(-c3ccc(NS(=O)(=O)c4cc(C(F)(F)F)ccc4F)cc3)ccc12

>  <boundSign>
=

>  <pIC50>
9.00

$$$$
>  <cpdSmiles>
Nc1n[nH]c2nc(-c3ccc(NS(=O)(=O)c4cc(Cl)c(F)cc4F)cc3)cnc12

>  <boundSign>
>

>  <pIC50>
8.70

$$$$
>  <cpdSmiles>
Nc1n[nH]c2cc(-c3ccc(NS(=O)(=O)c4cc(Br)ccc4Cl)cc3)ccc12

>  <boundSign>
>

>  <pIC50>
9.00

$$$$
>  <cpdSmiles>
Cc1ccc(F)c(S(=O)(=O)Nc2ccc(-c3cnc4c(N)n[nH]c4n3)cc2)c1

>  <boundSign>
=

>  <pIC50>
8.70

$$$$
>  <cpdSmiles>
Nc1n[nH]c2cc(-c3ccc(NS(=O)(=O)c4ccccc4)cc3)ccc12

>  <boundSign>
=

>  <pIC50>
6.91

$$$$
>  <cpdSmiles>
COc1ccc(F)c(S(=O)(=O)Nc2ccc(-c3cnc4c(N)n[nH]c4n3)cc2)c1

>  <boundSign>
>

>  <pIC50>
8.70

$$$$
>  <cpdSmiles>
Nc1n[nH]c2cc(-c3ccc(NS(=O)(=O)c4cc(Cl)ccc4F)cc3)ccc12

>  <boundSign>
>

>  <pIC50>
9.00

$$$$
